system: T1, mouse aminoacylase 3 (mouse, UniProt Q91XE4 1-318)
T1 sequence (looked up): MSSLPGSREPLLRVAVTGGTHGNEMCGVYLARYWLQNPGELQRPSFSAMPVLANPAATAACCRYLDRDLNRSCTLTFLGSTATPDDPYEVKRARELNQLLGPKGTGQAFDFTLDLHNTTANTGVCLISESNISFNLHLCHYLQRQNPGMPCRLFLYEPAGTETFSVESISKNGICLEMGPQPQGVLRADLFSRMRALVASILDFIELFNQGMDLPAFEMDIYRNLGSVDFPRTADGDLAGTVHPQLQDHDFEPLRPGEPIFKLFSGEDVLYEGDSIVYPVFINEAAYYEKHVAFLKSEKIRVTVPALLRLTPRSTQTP
method-summary: SPR
quantity-name: Kd (µM)

INSERT INTO measurements (binder, reading) VALUES
  ('STLPKPQRKTKRNTIRRPQDVKFPGG [HCVCP-long peptide (aa. 2-27)]', 142);

Every entry's value here was drawn from paper PMC3483449.
